Just for reference, paper PMC9405596 is where these values come from.

# System: bloodstream form of T. b. brucei (strain 427)
# EXPERIMENT NOTES: Bioluminescence viability assay against bloodstream T. b. brucei expressing luciferase
# CONDITION SUMMARY: CC50 HepG2 hepatocytes/IC50 T. brucei
Please provide measured T. brucei SI vs. Hepatocytes for the entries that follow.

Problem: Endpoint output: T. brucei SI vs. Hepatocytes of "Cc1nn(-c2ccccc2)c(O)c1C(c1cccc(C(F)(F)F)c1)c1c(C)nn(-c2ccccc2)c1O" . Value?
Solution: 2.9

Problem: Endpoint output: T. brucei SI vs. Hepatocytes of "Cc1nn(-c2ccccc2)c(O)c1C(c1cc(C(F)(F)F)cc(C(F)(F)F)c1)c1c(C)nn(-c2ccccc2)c1O" . Value?
Solution: 16

Problem: Endpoint output: T. brucei SI vs. Hepatocytes of "Cc1nn(-c2ccccc2)c(O)c1C(c1ccc(O)c(O)c1)c1c(C)nn(-c2ccccc2)c1O" . Value?
Solution: >9.8

Problem: Endpoint output: T. brucei SI vs. Hepatocytes of CC1CS(=O)(=O)CCN1/N=C/c1ccc([N+](=O)[O-])o1 (centres unmarked) [Nifurtimox, reference compound] . Value?
Solution: 13

Problem: Endpoint output: T. brucei SI vs. Hepatocytes of "COC(=O)c1ccc(C(c2c(C)nn(-c3ccccc3)c2O)c2c(C)nn(-c3ccccc3)c2O)cc1" . Value?
Solution: 4.9

Problem: Endpoint output: T. brucei SI vs. Hepatocytes of "Cc1nn(-c2ccccc2)c(O)c1C(c1ccc(C(F)(F)F)cc1)c1c(C)nn(-c2ccccc2)c1O" . Value?
Solution: 2.0

Problem: Endpoint output: T. brucei SI vs. Hepatocytes of "Cc1nn(-c2ccccc2)c(O)c1C(c1ccc(O)cc1O)c1c(C)nn(-c2ccccc2)c1O" . Value?
Solution: >111

Problem: Endpoint output: T. brucei SI vs. Hepatocytes of "COc1ccccc1C(c1c(C)nn(-c2ccccc2)c1O)c1c(C)nn(-c2ccccc2)c1O" . Value?
Solution: >12.5
